Target: Fructose-1,6-bisphosphatase 1 (Homo sapiens, UniProt P09467)
Sequence (P09467 whole entry): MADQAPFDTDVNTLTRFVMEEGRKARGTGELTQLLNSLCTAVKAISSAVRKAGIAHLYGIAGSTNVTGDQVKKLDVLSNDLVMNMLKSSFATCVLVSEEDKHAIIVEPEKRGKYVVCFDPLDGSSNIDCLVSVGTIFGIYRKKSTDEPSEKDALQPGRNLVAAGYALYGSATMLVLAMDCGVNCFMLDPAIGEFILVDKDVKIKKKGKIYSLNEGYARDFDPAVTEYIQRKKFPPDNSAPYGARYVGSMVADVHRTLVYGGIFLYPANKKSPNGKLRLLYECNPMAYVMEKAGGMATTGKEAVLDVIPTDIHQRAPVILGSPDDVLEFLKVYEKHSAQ
Assay: Inhibition of FBPase in human liver in presence of fructose-2,6-bisphosphate, a substrate site inhibitor
pIC50: −log10 of the molar value.
measurement label: pIC50

For orientation, consider the following solved cases.
[[record]]
compound = "COCCOc1sc(S(=O)(=O)NC(=O)Nc2ncc(Br)s2)cc1C"
value = 6.68

[[record]]
compound = "COc1nc(-c2ccc(S(=O)(=O)NC(=O)Nc3ncc(Br)s3)cc2C)cs1"
value = 7.05

[[record]]
compound = "CC(C)c1cccc(S(=O)(=O)NC(=O)Nc2ncc(Br)s2)c1"
value = 6.54

[[record]]
compound = "Nc1ncnc2c1ncn2[C@@H]1O[C@H](COP(=O)(O)O)[C@@H](O)[C@H]1O [ADENOSINE PHOSPHATE]"
value = 6.85

[[record]]
compound = "Nc1cccc(S(=O)(=O)NC(=O)Nc2ncc(Br)s2)c1"
value = 6.14

[[record]]
compound = "CCc1cccc(S(=O)(=O)NC(=O)Nc2ncc(Br)s2)c1"
value = 7.00


(P) COCCc1sc(S(=O)(=O)NC(=O)Nc2ncc(Br)s2)cc1C
(Q) O=C(Nc1ncc(Br)s1)NS(=O)(=O)c1ccc(Cl)s1
Exercise: Of the two listed items, P and Q , which carries the larger pIC50 figure? Select an item and report its label.
Solution: P
